# procedure summary: Retention time of the compound in 50 to 100% ACN/Water/0.1%TFA by RP-HPLC analysis
# Type: physicochemical
# experimental parameters: buffer
readout: Retention_time (min)
Give bare numbers, in min.

Reference set (4 entries):
{"columns": ["molecule smiles", "Retention_time, min"],
 "data": [
  ["Nc1ccc(C/C(=N/Nc2nc(-c3ccc(Cl)c(Cl)c3)cs2)C(=O)O)cc1[N+](=O)[O-]", 15.08],
  ["O=C(O)/C(Cc1ccc(F)c([N+](=O)[O-])c1)=N\\Nc1nc(-c2ccc(Cl)c(Cl)c2)cs1", 8.4],
  ["O=C(O)/C(Cc1ccccc1[N+](=O)[O-])=N\\Nc1nc(-c2ccc(-c3ccccc3)cc2)cs1", 7.23],
  ["O=C(O)/C(Cc1ccc(O)cc1)=N\\Nc1nc(-c2ccc(Cl)c(Cl)c2)cs1", 14.28]
]}

Batch lookup, Retention_time per entry.
1. O=C(O)/C(Cc1ccccc1[N+](=O)[O-])=N/Nc1nc(-c2ccc(N3CCOCC3)cc2)cs1
2. O=C(O)/C(Cc1ccc(O)cc1)=N/Nc1nc(-c2ccc(Cl)c(Cl)c2)cs1
3. O=C(O)/C(Cc1ccc(C(F)(F)F)cc1)=N/Nc1nc(-c2ccc(Cl)c(Cl)c2)cs1

15.082
14.28
10.59
